Values compiled from paper PMC8869358.

biological target: hERG (Homo sapiens); assay: cell-based; settings: (-LOG10(IC50), µM)
Sequence (Q12809 whole entry): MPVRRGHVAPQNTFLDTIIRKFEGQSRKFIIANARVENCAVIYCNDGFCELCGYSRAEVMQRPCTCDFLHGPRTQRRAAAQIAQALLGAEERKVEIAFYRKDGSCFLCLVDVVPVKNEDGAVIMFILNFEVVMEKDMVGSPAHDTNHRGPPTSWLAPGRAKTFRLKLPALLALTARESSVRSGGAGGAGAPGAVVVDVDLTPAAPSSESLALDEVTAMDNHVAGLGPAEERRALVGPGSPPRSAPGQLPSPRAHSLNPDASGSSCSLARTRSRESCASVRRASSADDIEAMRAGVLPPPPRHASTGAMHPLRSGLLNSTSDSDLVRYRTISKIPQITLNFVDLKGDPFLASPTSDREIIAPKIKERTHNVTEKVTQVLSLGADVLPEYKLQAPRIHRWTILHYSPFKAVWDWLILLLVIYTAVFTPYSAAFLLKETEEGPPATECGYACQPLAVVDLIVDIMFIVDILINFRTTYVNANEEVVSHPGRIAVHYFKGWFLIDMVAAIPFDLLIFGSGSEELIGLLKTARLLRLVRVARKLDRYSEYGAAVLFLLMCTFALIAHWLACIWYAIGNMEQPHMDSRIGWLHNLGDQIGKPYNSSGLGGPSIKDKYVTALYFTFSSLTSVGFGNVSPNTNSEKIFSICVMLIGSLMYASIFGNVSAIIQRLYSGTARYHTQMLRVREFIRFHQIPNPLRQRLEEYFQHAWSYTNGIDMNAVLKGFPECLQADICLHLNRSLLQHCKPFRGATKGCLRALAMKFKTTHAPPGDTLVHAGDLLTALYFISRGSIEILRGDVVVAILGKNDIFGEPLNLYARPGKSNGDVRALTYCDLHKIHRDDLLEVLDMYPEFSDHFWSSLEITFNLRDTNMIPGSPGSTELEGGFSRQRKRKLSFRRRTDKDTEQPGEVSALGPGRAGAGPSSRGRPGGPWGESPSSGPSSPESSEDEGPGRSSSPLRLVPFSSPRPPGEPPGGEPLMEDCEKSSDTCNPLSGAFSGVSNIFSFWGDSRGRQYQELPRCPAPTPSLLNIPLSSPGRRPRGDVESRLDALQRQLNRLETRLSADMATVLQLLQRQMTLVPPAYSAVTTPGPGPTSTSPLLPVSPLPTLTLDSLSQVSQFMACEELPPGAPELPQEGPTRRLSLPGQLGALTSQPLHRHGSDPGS
Items are presented alongside their recorded IC50.
metric_name: IC50 (µM)

compound | recorded_measurement
CCCCCCC(C)Nc1ccc(Nc2ccccc2)cc1 (stereo not drawn) | 34.7
CCN(C(=O)c1cc(C)cc(OC[C@H](C)Nc2ccncc2)c1)C(C)C [GW473178E methyl benzene sulphonic acid] | 15.9
CCCc1ccc(OCC(=O)N2CCN(C(=O)COc3ccc(CCC)cc3OC)CC2)c(OC)c1 [Simetride] | 1.4
CCCCCCCCCCCCn1cc[n+](C)c1 | 4.61
CC(C)(C)c1ccc(CSc2cnn(C(C)(C)C)c(=O)c2Cl)cc1 | 18.8
Oc1ccc(C(c2ccc(O)cc2)(C(F)(F)F)C(F)(F)F)cc1 | 43.4
O=[N+]([O-])c1ccc(Oc2ccc(Cl)cc2Cl)cc1 | 18.9
CC(C)(COC(=O)c1ccccc1)COC(=O)c1ccccc1 [Neopentyl glycol dibenzoate] | 13.8
O=C(C=Cc1ccccc1)OCCCc1ccccc1 [3-Phenylpropyl cinnamate] | 19.5
